- EXPERIMENT_SUMMARY: Permeability from apical to basolateral side in human Caco2 cells incubated for 2 hrs by LC-MS/MS analysis
- Type: ADME, cell-based
- APPLIED_CONDITIONS: Caco-2
Response field label takes met when Papp A→B at 2 h is strictly below 8 ×10⁻⁶ cm/s and not met in all other cases.

[ask] hey, is Papp A→B at 2 h for `COc1cc(C(=O)N2CCC(O)CC2)cc2nc(NCc3cccc(Cl)c3)oc12` lower than 8 ×10⁻⁶ cm/s or not?
[reply] met

[ask] hey, is Papp A→B at 2 h for COc1cc(C(=O)N2CC(C)OCC2CCO)cc2nc(NCc3cc(Cl)ccn3)oc12 (stereo not drawn) lower than 8 ×10⁻⁶ cm/s or not?
[reply] not met

[ask] hey, is Papp A→B at 2 h for COc1cc(C(=O)N2CC(C)C(O)CC2C2CC2)cc2nc(NCc3cccc(Cl)c3)oc12 (racemic) lower than 8 ×10⁻⁶ cm/s or not?
[reply] not met

[ask] hey, is Papp A→B at 2 h for `COc1cc(C(=O)N2C[C@H](C)OC[C@@H]2CCO)cc2nc(N[C@H](CF)c3cccc(Cl)c3)oc12` lower than 8 ×10⁻⁶ cm/s or not?
[reply] not met

[ask] hey, is Papp A→B at 2 h for CCCN(CC1CCOC1)C(=O)c1cc(OC)c2oc(NCc3cccc(Cl)c3)nc2c1 (racemic) lower than 8 ×10⁻⁶ cm/s or not?
[reply] not met

[ask] hey, is Papp A→B at 2 h for COc1cc(C(=O)N2CC(C)C(O)CC2CCO)cc2nc(NCc3cccc(Cl)c3)oc12 (racemic) lower than 8 ×10⁻⁶ cm/s or not?
[reply] met

[ask] hey, is Papp A→B at 2 h for COc1cc(C(=O)N2CCC(O)C(C)C2)cn2nc(NCc3cccc(Cl)c3)nc12 (racemic) lower than 8 ×10⁻⁶ cm/s or not?
[reply] met

[ask] hey, is Papp A→B at 2 h for `COc1cc(C(=O)N2C[C@H](C)OC[C@@H]2CCO)cc2nc(N[C@H](C)c3cccc(Cl)c3)oc12` lower than 8 ×10⁻⁶ cm/s or not?
[reply] not met

[ask] hey, is Papp A→B at 2 h for COc1cc(C(=O)N2CC(C)C(O)CC2C)cc2nc(NCc3cccc(Cl)c3)oc12 (stereo not drawn) lower than 8 ×10⁻⁶ cm/s or not?
[reply] not met

[ask] hey, is Papp A→B at 2 h for COc1cc(C(=O)N2CCC(O)C(C)C2)cc2nc(NCc3cc(Cl)ccn3)oc12 (racemic) lower than 8 ×10⁻⁶ cm/s or not?
[reply] met

[ask] hey, is Papp A→B at 2 h for `O=C(NCc1cccc(Cl)c1)c1ccc2cn(CCN3CCOC3=O)nc2c1` lower than 8 ×10⁻⁶ cm/s or not?
[reply] met

[ask] hey, is Papp A→B at 2 h for COc1cc(C(=O)N2CC(C)CCC2CCO)cc2nc(NCc3cccc(Cl)c3)oc12 (racemic) lower than 8 ×10⁻⁶ cm/s or not?
[reply] not met

[ask] hey, is Papp A→B at 2 h for COc1cc(C(=O)N2CC(C)OCC2C2CC(O)C2)cn2nc(NCc3cccc(Cl)c3)nc12 (stereo not drawn) lower than 8 ×10⁻⁶ cm/s or not?
[reply] met

[ask] hey, is Papp A→B at 2 h for `COc1cc(C(=O)N2CC[C@@H](O)[C@H](C)C2)cc2nc(NCc3cccc(Cl)c3)oc12` lower than 8 ×10⁻⁶ cm/s or not?
[reply] not met

[ask] hey, is Papp A→B at 2 h for `CC[C@@H]1CO[C@@](C)(CCO)CN1C(=O)c1cc(OC)c2oc(N[C@H](C)c3cccc(Cl)c3)nc2c1` lower than 8 ×10⁻⁶ cm/s or not?
[reply] met

[ask] hey, is Papp A→B at 2 h for COc1cc(C(=O)N2CCC(O)C(C)C2)cc2nc(NCc3cccc(Cl)c3)oc12 (racemic) lower than 8 ×10⁻⁶ cm/s or not?
[reply] not met

[ask] hey, is Papp A→B at 2 h for COc1cc(C(=O)N2CCC(O)C(C)C2)cc2nc(NCc3cncc(Cl)c3)oc12 (racemic) lower than 8 ×10⁻⁶ cm/s or not?
[reply] met

====

- EXPERIMENT_SUMMARY: Protein binding in rat plasma
- Type: ADME, cell-free
- APPLIED_CONDITIONS: read-out: PPB (converted)
READOUT: fraction unbound
Answer field: number only, no words.

[ask] Name the reported fraction unbound value associated with the compound `COc1cc(C(=O)N2C[C@H](C)OC[C@@H]2CCO)cc2nc(N[C@H](CF)c3cccc(Cl)c3)oc12`
[reply] 0.22

====

- EXPERIMENT_SUMMARY: AUC/dose in Wistar Hannover rat at 0.3 to 0.5 mg/kg, iv by LC-MS/MS analysis
- Assay type: ADME, organism-based
- APPLIED_CONDITIONS: in vivo, dose 0.3-0.5 mg/kg, time <=24 hrs
Please provide measured AUC/dose for the entries that follow.
Express your answer as a number followed by its unit.

[ask] Name the reported AUC/dose value associated with the molecule COc1cc(C(=O)N2CC(C)(CCO)OC[C@H]2C)cc2nc(N[C@H](CF)c3cccc(Cl)c3)oc12 (some centres undefined)
[reply] 0.33 kg·h/L

[ask] Name the reported AUC/dose value associated with the molecule COc1cc(C(=O)N2CC(C)(CCO)OC[C@H]2C)cc2nc(NCc3cc(Cl)ccn3)oc12 (some centres undefined)
[reply] 0.23 kg·h/L

[ask] Name the reported AUC/dose value associated with the molecule COc1cc(C(=O)N2CCOC(C)(CCO)C2)cc2nc(N[C@H](C)c3cccc(Cl)c3)oc12 (some centres undefined)
[reply] 0.33 kg·h/L

[ask] Name the reported AUC/dose value associated with the molecule `CC[C@@H]1CO[C@@](C)(CCO)CN1C(=O)c1cc(OC)c2oc(N[C@H](C)c3cccc(Cl)c3)nc2c1`
[reply] 0.32 kg·h/L

====

- EXPERIMENTAL_SYSTEM: Nuclear receptor subfamily 1 group I member 2 (Homo sapiens, UniProt O75469)
- Sequence (O75469 whole entry): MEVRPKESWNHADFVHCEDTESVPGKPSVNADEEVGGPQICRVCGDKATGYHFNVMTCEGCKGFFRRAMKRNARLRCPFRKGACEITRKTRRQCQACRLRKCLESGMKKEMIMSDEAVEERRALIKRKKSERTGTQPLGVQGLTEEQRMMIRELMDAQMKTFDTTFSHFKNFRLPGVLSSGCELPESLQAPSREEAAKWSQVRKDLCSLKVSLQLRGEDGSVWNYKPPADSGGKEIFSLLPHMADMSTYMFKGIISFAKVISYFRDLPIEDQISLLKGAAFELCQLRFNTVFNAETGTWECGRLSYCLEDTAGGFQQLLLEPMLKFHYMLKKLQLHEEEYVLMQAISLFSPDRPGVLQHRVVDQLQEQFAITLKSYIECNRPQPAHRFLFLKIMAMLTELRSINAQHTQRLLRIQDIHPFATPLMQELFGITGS
- EXPERIMENT_SUMMARY: Activation of human PXR human hepatocytes assessed as induction of CYP3A4 mRNA expression incubated for 48 hrs by qPCR analysis
- Type: ADME, tissue-based, Hepatocyte
READOUT: NOAEL

[ask] Name the reported NOAEL value associated with the molecule `COc1cc(C(=O)N2C[C@H](C)OC[C@@H]2CCO)cc2nc(N[C@H](CF)c3cccc(Cl)c3)oc12`
[reply] > 10000 ng/mL

[ask] Name the reported NOAEL value associated with the molecule COc1cc(C(=O)N2CC(C)OCC2CCO)cc2nc(NCc3cc(Cl)ccn3)oc12 (stereo unspecified)
[reply] > 10000 ng/mL

[ask] Name the reported NOAEL value associated with the molecule COc1cc(C(=O)N2CC(C)(CCO)OC[C@H]2C)cn2nc(NCc3cccc(Cl)c3)nc12 (stereo partly specified)
[reply] > 10000 ng/mL

[ask] Name the reported NOAEL value associated with the molecule `COc1cc(C(=O)N2CC[C@@H](O)[C@H](C)C2)cc2nc(NCc3cccc(Cl)c3)oc12`
[reply] 370 ng/mL

[ask] Name the reported NOAEL value associated with the molecule `CC[C@@H]1CO[C@@](C)(CCO)CN1C(=O)c1cc(OC)c2oc(N[C@H](C)c3cccc(Cl)c3)nc2c1`
[reply] 1111 ng/mL

[ask] Name the reported NOAEL value associated with the molecule COc1cc(C(=O)N2CC(C)(CCO)OC[C@H]2C)cc2nc(NCc3cc(Cl)ccn3)oc12 (stereo partly specified)
[reply] > 10000 ng/mL

====

- EXPERIMENT_SUMMARY: Terminal half-life in orally dosed healthy human
- Assay type: ADME, organism-based
- APPLIED_CONDITIONS: in vivo, po, read-out: beta t1/2 (converted)
READOUT: half-life
Express your answer as a number followed by its unit.

[ask] Name the reported half-life value associated with the compound `COc1cc(C(=O)N2C[C@H](C)OC[C@@H]2CCO)cc2nc(N[C@H](CF)c3cccc(Cl)c3)oc12`
[reply] 9.5 h

====

- EXPERIMENT_SUMMARY: Half life in Wistar Hannover rat at 0.3 to 0.5 mg/kg, iv by LC-MS/MS analysis
- Type: ADME, organism-based
- APPLIED_CONDITIONS: in vivo, dose 0.3-0.5 mg/kg, time <=24 hrs
READOUT: half-life (h)
Your answer should be a plain number; it is taken to be in h.

[ask] Name the reported half-life value associated with the compound COc1cc(C(=O)N2CC(C)OCC2CO)cc2nc(N[C@H](C)c3cccc(Cl)c3)oc12 (stereo not given in full)
[reply] 1.1

[ask] Name the reported half-life value associated with the compound COc1cc(C(=O)N2CC(C)(CCO)OC[C@H]2C)cc2nc(N[C@H](CF)c3cccc(Cl)c3)oc12 (stereo not given in full)
[reply] 1.1

[ask] Name the reported half-life value associated with the compound COc1cc(C(=O)N2CC(C)OCC2CCO)cc2nc(NCc3cc(Cl)ccn3)oc12 (stereo not given)
[reply] 0.5

[ask] Name the reported half-life value associated with the compound COc1cc(C(=O)N2CCOC(C)(CCO)C2)cc2nc(N[C@H](C)c3cccc(Cl)c3)oc12 (stereo not given in full)
[reply] 2.7

[ask] Name the reported half-life value associated with the compound COc1cc(C(=O)N2CC(C)(CCO)OC[C@H]2C)cc2nc(NCc3cc(Cl)ccn3)oc12 (stereo not given in full)
[reply] 0.44

Hello, the source for this data is ChEMBL document CHEMBL4665889, in case you need it.
